The reported numbers originate from PubChem BioAssay AID2842.

Test system: M. tuberculosis H37Rv growth inhibition
Test name: Mycobacterium tuberculosis H37Rv growth inhibition, putative kinase inhibitor library, confirmatory dose response (AID 2842);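 also: bacteria incubated one week before Alamar blue readout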
Each entry below lists one item and its recorded IC90 value.

# Smiles string, Target or system, IC90
records = [
    ("Cc1[nH]c2ccccc2c1/C=N/NC(=O)c1cc(-c2ccc(Br)s2)[nH]n1", "M. tuberculosis H37Rv growth inhibition", "12.2 µg/mL"),
    ("COc1cccc2sc(Nc3nc4ccc(C(C)C)cc4s3)nc12", "M. tuberculosis H37Rv growth inhibition", "2.24 µg/mL"),
    ("O=C1Nc2ccccc2/C1=C/C(=O)c1ccc([N+](=O)[O-])cc1", "M. tuberculosis H37Rv growth inhibition", "47.7 µg/mL"),
    ("COc1ccccc1-c1nnc(NC(=O)c2ccc3c(c2)CCCC3)o1", "M. tuberculosis H37Rv growth inhibition", "8.04 µg/mL"),
    ("O=C(c1cccs1)N(CCCn1ccnc1)c1nc2ccc(F)cc2s1", "M. tuberculosis H37Rv growth inhibition", "3.01 µg/mL"),
    ("COc1ccccc1-c1nnc(NC(=O)c2sc3ccccc3c2Cl)o1", "M. tuberculosis H37Rv growth inhibition", "5.3 µg/mL"),
]

----------
Tested on: M. tuberculosis H37Rv growth inhibition
Test name: Mycobacterium tuberculosis H37Rv growth inhibition, putative kinase inhibitor library, confirmatory dose response (AID 2842);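 also: bacteria incubated one week before Alamar blue readout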
Each entry below lists one item and its recorded IC90 value.

# Molecule, Target or system, IC90
data = [
    ("COC(=O)c1ccc(C(=O)NNc2nc3c(C)cc(C)cc3s2)cc1", "M. tuberculosis H37Rv growth inhibition", "6.49 µg/mL"),
    ("Cc1ccc2sc(NNC(=O)c3nc4ccccc4s3)nc2c1C", "M. tuberculosis H37Rv growth inhibition", "3.31 µg/mL"),
    ("Cc1ccc(C)c(-c2nnc(NC(=O)c3cc(Cl)sc3Cl)o2)c1", "M. tuberculosis H37Rv growth inhibition", "2.16 µg/mL"),
    ("CSc1cccc(-c2nnc(NC(=O)c3ccc([N+](=O)[O-])s3)o2)c1", "M. tuberculosis H37Rv growth inhibition", "1.58 µg/mL"),
    ("COc1ccc(C(=O)N(CCCn2ccnc2)c2nc3c(C)c(C)ccc3s2)cc1OC", "M. tuberculosis H37Rv growth inhibition", "14.2 µg/mL"),
    ("Cc1cc(C)cc(Nc2cc(C)nc3c(-c4ccccc4)cnn23)c1", "M. tuberculosis H37Rv growth inhibition", "2.7 µg/mL"),
    ("CC1(C)COCN1S(=O)(=O)c1ccc(C(=O)Nc2nnc(-c3ccc(F)cc3)o2)cc1", "M. tuberculosis H37Rv growth inhibition", "23.3 µg/mL"),
    ("COc1cc(/C=C(\\C#N)c2nc(-c3ccc4c(c3)OCO4)cs2)cc([N+](=O)[O-])c1O", "M. tuberculosis H37Rv growth inhibition", "37.7 µg/mL"),
    ("Cc1ccc(NCCn2c(C)cn3c4c(=O)[nH]c(=O)n(C)c4nc23)cc1", "M. tuberculosis H37Rv growth inhibition", "15.1 µg/mL"),
    ("CCOc1ccc(-c2nnc3c4cc5c(cc4n(Cc4cccc(OC)c4)cc2-3)OCCO5)cc1", "M. tuberculosis H37Rv growth inhibition", "3.52 µg/mL"),
    ("CCC(=O)Nc1nnc(-c2ccc(OC)cc2)o1", "M. tuberculosis H37Rv growth inhibition", "4.39 µg/mL"),
    ("Cc1ccccc1C(=O)Nc1nnc(-c2cc(Cl)ccc2Cl)o1", "M. tuberculosis H37Rv growth inhibition", "1.27 µg/mL"),
    ("O=C(NNc1nc2c(F)cc(F)cc2s1)c1nc2ccccc2s1", "M. tuberculosis H37Rv growth inhibition", "21.8 µg/mL"),
    ("CS(=O)(=O)c1ccc(CC(=O)Nc2nnc(-c3ccc4c(c3)CCCC4)o2)cc1", "M. tuberculosis H37Rv growth inhibition", "13.9 µg/mL"),
    ("CC(C)(C)c1ccc(C(=O)Nc2nc(-c3ccc4c(c3)OCO4)cs2)cc1", "M. tuberculosis H37Rv growth inhibition", "6.72 µg/mL"),
    ("O=C(Nc1nnc(-c2ccc3c(c2)CCCC3)o1)c1cccc(Cl)c1", "M. tuberculosis H37Rv growth inhibition", "8.65 µg/mL"),
    ("CCCCCOc1ccc(C(=O)Nc2nnc(-c3ccco3)o2)cc1", "M. tuberculosis H37Rv growth inhibition", "8.78 µg/mL"),
    ("CCOC(=O)c1ccc(NC(=O)CSc2ccc(F)cc2)cc1", "M. tuberculosis H37Rv growth inhibition", "5.47 µg/mL"),
    ("O=C(CSc1nc(-c2cccc(F)c2)[nH]c1-c1ccccc1)Nc1ccc2c(c1)OCCO2", "M. tuberculosis H37Rv growth inhibition", "7.87 µg/mL"),
    ("O=C(c1ccc(Nc2nc(-c3ccccc3)c3cc(Br)ccc3n2)cc1)N1CCCC1", "M. tuberculosis H37Rv growth inhibition", "21.1 µg/mL"),
    ("Cc1ccc2sc(NNC(=O)c3cccs3)nc2c1C", "M. tuberculosis H37Rv growth inhibition", "23.2 µg/mL"),
    ("Cc1cc(C)c2sc(NNC(=O)c3cc(-c4cccs4)nc4ccccc34)nc2c1", "M. tuberculosis H37Rv growth inhibition", "25.6 µg/mL"),
    ("Cc1ccc(C)c(-c2nnc(NC(=O)c3cccc4ccccc34)o2)c1", "M. tuberculosis H37Rv growth inhibition", "0.41 µg/mL"),
    ("COc1ccc2sc(Nc3nnc(-c4ccco4)o3)nc2c1", "M. tuberculosis H37Rv growth inhibition", "80 µg/mL"),
    ("O=C(Nc1nnc(-c2ccc(Cl)s2)o1)c1ccc(Br)s1", "M. tuberculosis H37Rv growth inhibition", "11.6 µg/mL"),
    ("CCOc1ccc2c(c1)c1nnc(-c3ccc(OC)cc3)c-1cn2Cc1ccccc1F", "M. tuberculosis H37Rv growth inhibition", "4.73 µg/mL"),
    ("O=C(Nc1nccs1)c1ccc2c(c1)CCCC2", "M. tuberculosis H37Rv growth inhibition", "3.85 µg/mL"),
    ("COc1ccc2nc(N3CCCC3)sc2c1", "M. tuberculosis H37Rv growth inhibition", "8.36 µg/mL"),
    ("Cc1ccc(-c2nnc(NC(=O)c3cc4ccccc4oc3=O)o2)c(C)c1", "M. tuberculosis H37Rv growth inhibition", "1.36 µg/mL"),
    ("O=c1cnnc(N/N=C/c2c(O)ccc3ccccc23)[nH]1", "M. tuberculosis H37Rv growth inhibition", "< 0.2 µg/mL"),
    ("COc1ccc(-c2nc(N3CCCCC3)nc3n[nH]c(N)c23)cc1", "M. tuberculosis H37Rv growth inhibition", "12.9 µg/mL"),
    ("O=C(Nc1nnc(-c2ccco2)o1)c1cccc(C(F)(F)F)c1", "M. tuberculosis H37Rv growth inhibition", "< 0.2 µg/mL"),
    ("COc1ccc(-c2nnc3c4cc(OC)c(OC)cc4n(Cc4ccccc4OC)cc2-3)cc1", "M. tuberculosis H37Rv growth inhibition", "5.67 µg/mL"),
    ("O=C(Cc1cccc2ccccc12)Nc1nnc(-c2cc(Cl)ccc2Cl)o1", "M. tuberculosis H37Rv growth inhibition", "94.5 µg/mL"),
    ("Cc1ccc(CC(=O)Nc2nnc(-c3ccco3)o2)c(C)c1", "M. tuberculosis H37Rv growth inhibition", "17.9 µg/mL"),
    ("O=C(Nc1nnc(-c2cc(Cl)ccc2Cl)o1)c1ccc(S(=O)(=O)N2CCOCC2)cc1", "M. tuberculosis H37Rv growth inhibition", "3.86 µg/mL"),
    ("CCOC(=O)C(C)Sc1ncnc2c1cnn2-c1ccc(F)cc1 (centres undefined)", "M. tuberculosis H37Rv growth inhibition", "4.73 µg/mL"),
    ("N#C/C(=C\\Nc1ccccc1)c1nc2ccccc2[nH]1", "M. tuberculosis H37Rv growth inhibition", "3.25 µg/mL"),
    ("COc1cccc(C(=O)Nc2nc3c(s2)CC(C)CC3)c1 (centres undefined)", "M. tuberculosis H37Rv growth inhibition", "14.1 µg/mL"),
    ("CCOc1cc(-c2nnc(NC(=O)c3ccccc3Cl)o2)cc(OCC)c1OCC", "M. tuberculosis H37Rv growth inhibition", "1.61 µg/mL"),
    ("COc1ccc(C)c2sc(NNC(=O)c3ccccc3)nc12", "M. tuberculosis H37Rv growth inhibition", "4.03 µg/mL"),
    ("O=C(Nc1nnc(-c2cc(Cl)ccc2Cl)o1)c1cccc(Cl)c1", "M. tuberculosis H37Rv growth inhibition", "31.7 µg/mL"),
    ("Cc1cccc2sc(N(CCCn3ccnc3)C(=O)c3ccco3)nc12", "M. tuberculosis H37Rv growth inhibition", "0.83 µg/mL"),
    ("Cc1ccc(-c2[nH]c3ccccc3c2SCCNC(=O)c2cc3ccccc3oc2=O)cc1", "M. tuberculosis H37Rv growth inhibition", "4 µg/mL"),
]
